# pEC50 listing for each entry below
biological target: Human GLP-1R (Homo sapiens); assay: EC20 GLP-1(9-36) PAM cAMP assay: dose response of compound in the presence of fixed concentration of GLP-1(9-36); conditions: Human GLP-1R CRE-bla CHO-K1 cells, 60 nM GLP-1(9-36), 30 minutes at 37° C.
Sequence (P43220 24-463): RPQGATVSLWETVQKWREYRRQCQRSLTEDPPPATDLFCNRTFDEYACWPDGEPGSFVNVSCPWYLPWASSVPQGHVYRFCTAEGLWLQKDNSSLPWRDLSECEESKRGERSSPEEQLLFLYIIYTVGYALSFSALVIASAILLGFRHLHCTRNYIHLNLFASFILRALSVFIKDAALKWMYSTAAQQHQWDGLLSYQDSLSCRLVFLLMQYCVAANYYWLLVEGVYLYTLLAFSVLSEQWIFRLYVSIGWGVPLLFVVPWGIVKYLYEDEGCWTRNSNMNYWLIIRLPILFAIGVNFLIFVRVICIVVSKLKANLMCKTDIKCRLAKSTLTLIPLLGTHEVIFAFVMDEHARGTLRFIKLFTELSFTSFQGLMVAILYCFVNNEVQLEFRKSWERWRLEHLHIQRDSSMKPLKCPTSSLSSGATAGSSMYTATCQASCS
pEC50: −log10 of the molar value.

- compound: "COc1ccc(CC(=O)Nc2ccc(C(=O)N(CC(=O)O)Cc3ccc(-c4ncc(C5=CCC(C(C)(C)C)CC5)cn4)cc3)cc2)c(C(F)(F)F)c1 (stereo not drawn) [Compound 77]"
  pEC50: "5.30 to 5.60"
- compound: "CC[C@H]1CC[C@H](C2CC=C(c3cnc(-c4ccc(CN(CC(=O)O)C(=O)c5ccc(NC(=O)CCc6ccc(OC)cc6)cc5)cc4)nc3)CC2)CC1 (stereo partly drawn) [Compound 93]"
  pEC50: "> 6.10"
- compound: "CC[C@H]1CC[C@@H]([C@@H]2CC=C(c3cnc(-c4ccc(CN(CC(=O)O)C(=O)CNC(=O)Cc5ccc(OC)cc5)cc4)nc3)CC2)CC1 [Compound 118]"
  pEC50: "5.60 to 6.10"
- compound: "COc1ccc(CC(=O)Nc2ccc(C(=O)N(CC(=O)O)Cc3ccc(-c4cnc(C5=CCC(C(C)C)CC5)cn4)cc3)cc2)cc1 (stereo not drawn) [Compound 88]"
  pEC50: "5.60 to 6.10"
- compound: "CC[C@H]1CC[C@H](C2CC=C(c3cnc(-c4ccc(CN(CC(=O)N5CC[C@H](C(=O)O)C5)C(=O)c5ccc(NC(=O)Cc6ccc(OC)cc6C(F)(F)F)cc5)cc4)nc3)CC2)CC1 (stereo partly drawn) [Compound 15]"
  pEC50: "> 6.10"

Please examine the following record next.
Given the entry CC[C@H]1CC[C@H](C2CC=C(c3cnc(-c4ccc(CN(CC(=O)O)C(=O)CCC(=O)CN5c6cccc7cccc(c67)S5(=O)=O)cc4)nc3)CC2)CC1 (stereo partly drawn) [Compound 127] , report its measured pEC50.
> 6.10
